measured.on: T1, Human HER3, endogenous, on human cancer cell lines (human, UniProt P21860 20-1342)
T1 construct: Endogenous antigen on SK-Br-3, MCF7 or BT-474 cells; also called HER3 on SK-Br-3 cells; HER3 on MCF7 cells
protocol.summary: FACS titration on SK-Br-3 cells
pEC50: −log10 of the molar value.
# pEC50 per entry

>  <binder>
MOR09823 (antibody, human IgG1, kappa, V domains shown, tested as IgG) VH: QVQLVESGGGLVQPGGSLRLSCAASGFTFSSYAMSWVRQAPGKGLEWVSVTGAVGRTYYPDSVKGRFTISRDNSKNTLYLQMNSLRAEDTAVYYCARWGDEGFDIWGQGTLVTVSS VL: DIQMTQSPSSLSASVGDRVTITCRASQGISNWLAWYQQKPGKAPKLLIYGASSLQSGVPSRFSGSGSGTDFTLTISSLQPEDFAVYYCQQYSSFPTTFGQGTKVEIKR

>  <pEC50>
9.20

$$$$
>  <binder>
MOR10703 (antibody, human IgG1, kappa, V domains shown, tested as IgG) VH: EVQLLESGGGLVQPGGSLRLSCAASGFTFSSYAMSWVRQAPGKGLEWVSAINSQGKSTYYADSVKGRFTISRDNSKNTLYLQMNSLRAEDTAVYYCARWGDEGFDIWGQGTLVTVSS VL: DIQMTQSPSSLSASVGDRVTITCRASQGISNWLAWYQQKPGKAPKLLIYGASSLQSGVPSRFSGSGSGTDFTLTISSLQPEDFATYYCQQYSSFPTTFGQGTKVEIKR

>  <pEC50>
8.61

$$$$
>  <binder>
MOR09824 (antibody, human IgG1, kappa, V domains shown, tested as IgG) VH: QVQLVESGGGLVQPGGSLRLSCAASGFTFSSYAMSWVRQAPGKGLEWVSVISAWGHVKYYADSVKGRFTISRDNSKNTLYLQMNSLRAEDTAVYYCARWGDEGFDIWGQGTLVTVSS VL: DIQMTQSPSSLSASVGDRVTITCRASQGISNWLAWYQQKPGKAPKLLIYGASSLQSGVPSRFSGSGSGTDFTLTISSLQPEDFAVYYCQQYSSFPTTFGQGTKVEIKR

>  <pEC50>
9.49

$$$$

Where these numbers come from: patent US20130330324A1
